System: FB
Test description: Euclidean distance of Cell Painting phenotypic profile (signed KS, 77 features) to DMSO centroid (dimensionless distance); 5 or 10 uM (library dependent); higher = stronger phenotypic change vs DMSO (phenoactivity)
Assay context: 48 h
Where a name gives a salt, the structure may show the parent alone.
We begin with a simple list: items and their reported Euclidean distance.
Measured property: Euclidean distance

[
  {
    "Compound": "N#C/C(=C(/N)Sc1ccc(N)cc1)c1ccccc1C(F)(F)F",
    "Measured value": 1.1
  },
  {
    "Compound": "C[C@H](O)C(=O)Nc1c(I)c(C(=O)NC(CO)CO)c(I)c(C(=O)NC(CO)CO)c1I",
    "Measured value": 1.06
  },
  {
    "Compound": "O=C(Nc1ccccc1-c1cn2c(CN3CCNCC3)csc2n1)c1cnc2ccccc2n1",
    "Measured value": 5.74
  },
  {
    "Compound": "C=C1/C(=C\\C=C2/CCC[C@]3(C)[C@@H]([C@H](C)/C=C/[C@H](C)C(C)C)CC[C@@H]23)C[C@@H](O)C[C@@H]1O",
    "Measured value": 1.9
  },
  {
    "Compound": "Cn1cc(C2=C(c3cccc(N)c3)C(=O)NC2=O)c2ccccc21",
    "Measured value": 1.8
  },
  {
    "Compound": "CCS(=O)(=O)Nc1ccc2c(c1)/C(=C(/Nc1ccc(CN3CCCCC3)cc1)c1ccccc1)C(=O)N2",
    "Measured value": 3.41
  },
  {
    "Compound": "Cc1nnc(SCC2=C(C(=O)O)N3C(=O)[C@@H](NC(=O)Cn4cnnn4)[C@H]3SC2)s1 [Cefazolin Sodium]",
    "Measured value": 0.961
  },
  {
    "Compound": "Cc1cc(C)c(Nc2ccnc(Nc3ccc(C#N)cc3)n2)c(C)c1",
    "Measured value": 1.33
  },
  {
    "Compound": "CNS(=O)(=O)Cc1ccc2[nH]cc(CCN(C)C)c2c1 [Sumatriptan Succinate]",
    "Measured value": 1.35
  },
  {
    "Compound": "CC(=O)N1CCN(CCOc2ccc(C3CCN(C4=Nn5c(nnc5C(F)(F)F)CC4)CC3)cc2)CC1",
    "Measured value": 1.76
  },
  {
    "Compound": "CNCCCC1c2ccccc2C=Cc2ccccc21 [Protriptyline hydrochloride]",
    "Measured value": 1.82
  },
  {
    "Compound": "NC(=O)N/N=C/c1ccc([N+](=O)[O-])o1",
    "Measured value": 1
  }
]
